# Assayed target: membrane receptors of human breast cancer cells (Homo sapiens)
# Construct: human prostate and breast cancer cell membranes; endogenous in cells
# Sequence (P30968 1-328): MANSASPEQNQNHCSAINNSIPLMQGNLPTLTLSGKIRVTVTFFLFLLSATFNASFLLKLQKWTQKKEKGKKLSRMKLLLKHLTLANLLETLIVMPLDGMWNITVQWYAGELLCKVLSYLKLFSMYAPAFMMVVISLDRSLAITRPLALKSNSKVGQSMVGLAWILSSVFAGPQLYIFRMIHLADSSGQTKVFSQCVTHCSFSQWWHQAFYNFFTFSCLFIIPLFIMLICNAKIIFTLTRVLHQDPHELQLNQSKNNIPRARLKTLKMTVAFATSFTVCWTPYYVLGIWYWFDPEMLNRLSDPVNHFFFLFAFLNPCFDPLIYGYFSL
# Assay info: Receptor binding to human breast cancer cell membranes with 125I-labeled [D-Trp6]LHRH
# Run parameters: Table 1, agonistic analogues, high affinity binding sites, ¹²⁵l-labeled [D-Trp⁶]LHRH
Quantity name: Binding affinity, Ka1, for membrane receptors of cancer cells
Please provide the amount together with its unit, number first.

Note to self: Binding affinity, Ka1, for membrane receptors of cancer cells recorded for pGlu-His-Trp-Ser-Tyr-D-Lys[(Cu²²)(CISAL)₂(DL-A₂pr)]-Leu-Arg-Pro-Gly-NH₂ [Example IX] was 3.995 nM⁻¹

Note to self: Binding affinity, Ka1, for membrane receptors of cancer cells recorded for pGlu-His-Trp-Ser-Tyr-D-Lys [(Ni⁺⁺)(CISAL)₂(D-A₂pr)]-Leu-Arg-Pro-Gly-NH₂ [Example X] was 2.236 nM⁻¹

Note to self: Binding affinity, Ka1, for membrane receptors of cancer cells recorded for pGlu-His-Trp-Ser-Tyr-D-Lys[(Ni⁺⁺)(SAL)₂(D-A₂pr)]-Leu-Arg-Pro-Gly-NH₂ [VIIIB] was 3.334 nM⁻¹

Note to self: Binding affinity, Ka1, for membrane receptors of cancer cells recorded for pGlu-His-Trp-Ser-Tyr-D-Lys[(Ni⁺⁺)(SAL) 2(A₂pr)]-Leu-Arg-Pro-Gly-NH₂ [VIIIA] was 5.234 nM⁻¹

Note to self: Binding affinity, Ka1, for membrane receptors of cancer cells recorded for pGlu-His-Trp-Ser-Tyr-D-Lys[(Cu⁺⁺)(SAL) ₂(A₂pr)]-Leu-Arg-Pro-Gly-NH₂ [Example VII] was 3.589 nM⁻¹
